molecular target: Nuclear receptor ROR-gamma (Homo sapiens); experiment: qHTS assay to identify small molecule antagonists of the retinoid-related orphan receptor gamma (ROR-gamma) signaling pathway (AID 1159521; note: nearly all actives have a fitted effect of over 50% in size); settings: Tet-on RORgamma CHO cells, RORE-luciferase, 16 h; series mostly up to 92.4 µM
Inconclusive results are not listed. Activity calls are given as the source filed them. Calls come from the whole dose curve; as a rule, active = well fitted inhibition curve with a large enough effect in the repeat runs; inconclusive = weak or mixed curves, or effect the other way; inactive = no such curve, though single readings can be large or run the other way.
Pick from t (active), f (inactive) when you respond.

1) [Cl][Dy]([Cl])[Cl] :: f
2) O=C(NCc1ncc(C(F)(F)F)cc1Cl)c1c(Cl)cccc1Cl :: t
3) CO[Si](OC)(c1ccccc1)c1ccccc1 :: t
4) Nc1ccc(F)c([N+](=O)[O-])c1 :: f
5) [Cl][Eu]([Cl])[Cl] :: f
6) C/C(=N\[Si](C)(C)C)O[Si](C)(C)C :: f
7) Cc1ccc(C=O)cc1 :: f

# next compound below
Hi, do you know how O=C1OCc2ccccc21 came out in this test? f

* * *

assay: qHTS RealTime-Glo MT Cell Viability Assay in HEK293 cells - 16 hour (AID 1224872); details: RealTime-Glo luminescence; series mostly up to 76.8 µM; note: nearly all actives have a fitted effect of over 50% in size
Records with an inconclusive call do not appear. Calls of active or inactive are those of the source. Calls follow the shape of the dose curve; as a rule, active = well fitted cell-killing curve with a large enough effect in the repeat runs; inconclusive = weak or mixed curves, or effect the other way; inactive = flat fitted curve, though single readings scatter.
Pick from active, inactive when you respond.

Check out these entries, answers already filled in.
1. CCCOC(=O)c1ccc(O)cc1 :: active
2. NCc1cccc(C2CCN(C(=O)c3ccc(C#Cc4ccccc4F)o3)CC2)c1 :: active

Hi, do you know how O=C(CCCCCCCCc1cccnc1)N1CCC(C=C(c2ccccc2)c2ccccc2)CC1 came out in this test? active

Same question, CCCCCCCCCCCCCCCCCCNC(=O)OC1CCN(C(=O)OC[C@H](COC(=O)N(Cc2cccc[n+]2CC)C(=O)c2ccccc2OC)OC)CC1 this time active

Same question, CC1=CC[C@@H](C(C)(C)O)CC1 this time inactive

* * *

assay: A CellTox Green Cytotoxicity Assay to monitor cytotoxicity in HEK293 cells - 40 hour (AID 1224871); settings: CellTox Green fluorescence; series mostly up to 76.8 µM; note: nearly all actives have a fitted effect of over 45% in size
Results filed as inconclusive are left out. Calls of active or inactive are those of the source. The call rests on the fitted dose curve; in most records, active means well fitted activation curve with a large enough effect in the repeat runs; inconclusive means weak or mixed curves; inactive means flat fitted curve, though single readings scatter.
Pick from True = active, False = inactive when you respond.

Check out these entries, answers already filled in.
1. CC1(C)[C@H](C(=O)OCc2cccc(Oc3ccccc3)c2)[C@@H]1C=C(Cl)Cl :: False
2. CC(Cc1ccc(O)c(O)c1)C(C)Cc1ccc(O)c(O)c1 (stereo unspecified) :: False
3. CCNc1nc(NC(C)(C)C)nc(OC)n1 :: False
4. CCCCCCCCCCCCCCCCC(C(=O)O)C(O)(CC(=O)O)C(=O)O (stereo unspecified) :: False

Hi, do you know how [Cl][Eu]([Cl])[Cl] came out in this test? False

Same question, Nc1c(Br)cc([N+](=O)[O-])cc1Br this time False

* * *

test: qHTS assay to identify small molecule antagonists of the androgen receptor (AR) signaling pathway - cell viability counter screen (AID 743033; note: nearly all actives have a fitted effect of over 45% in size); details: AR-bla HEK293 viability, CellTiter-Glo luminescence, 16 h; series mostly up to 58.5 µM
Records with an inconclusive call do not appear. Activity calls are given as the source filed them. The call rests on the fitted dose curve; in most records, active means well fitted cell-killing curve with a large enough effect in the repeat runs; inconclusive means weak or mixed curves; inactive means no such curve, though single readings can be large or run the other way. Non-standard residues stand in square brackets, D forms with d. Residues, ends and D or L forms follow the SMILES beside them. Orn = NCCC[C@H](N)C(=O)O
Pick from active, inactive when you respond.

Check out these entries, answers already filled in.
1) CC(CNC(=O)c1cccnc1)NC(=O)c1cccnc1 (centres undefined) :: inactive
2) CO/N=C(\C(=O)N[C@@H]1C(=O)N2C(C(=O)[O-])=C(C[n+]3ccc(N)n3CCO)CS[C@H]12)c1csc(N)n1 :: inactive
3) COc1ccc(/C=N/NC(=O)c2ccncc2)c(C(=O)O)c1OC :: inactive
4) O=C1OC(O)C(C(Cl)Cl)=C1Cl (centres undefined) :: active
5) Cc1ncc(C[n+]2csc(CCOP(=O)(O)O)c2C)c(N)n1 :: inactive
6) C=C1[C@@H]2CC[C@@H](C2)C1(C)C :: inactive
7) CC(C)C[C@@H]1NC(=O)[C@H](CCCN)NC(=O)[C@H](C(C)C)NC(=O)[C@@H]2CCCN2C(=O)[C@@H](Cc2ccccc2)NC(=O)[C@H](CC(C)C)NC(=O)[C@H](CCCN)NC(=O)[C@H](C(C)C)NC(=O)[C@@H]2CCCN2C(=O)[C@@H](Cc2ccccc2)NC1=O (cyclo(V[Orn]L[dF]PV[Orn]L[dF]P)) :: active
8) O=C1CCCCCCCCCCCCCC1 :: inactive

Hi, do you know how NC[C@H]1O[C@H](O[C@H]2[C@H](O)[C@@H](O[C@H]3O[C@H](CO)[C@@H](O)[C@H](N)[C@H]3O)[C@H](N)C[C@@H]2N)[C@H](N)C[C@@H]1O came out in this test? inactive

Same question, CC(C)(C)c1ccc2c(S(=O)(=O)O)c(C(C)(C)C)ccc2c1 this time inactive

Same question, C=C(Nc1ccc(OCC)cc1)Nc1ccc(OCC)cc1 this time inactive

Same question, C[C@H]1O[C@@H](O[C@H]2CC[C@@]3(C)[C@H](CC[C@@H]4[C@@H]3C[C@@H](O)[C@]3(C)[C@@H](C5=CC(=O)OC5)CC[C@]43O)C2)C[C@H](O)[C@@H]1O[C@H]1C[C@H](O)[C@H](O[C@H]2C[C@H](O)[C@H](O[C@@H]3O[C@H](CO)[C@@H](O)[C@H](O)[C@H]3O)[C@@H](C)O2)[C@@H](C)O1 this time active

Same question, c1ccc2cc3c4ccccc4c4ccccc4c3cc2c1 this time inactive
